# test_summary: The therapeutic safety margin (TSM) is the ratio of the minimum lethal dose (mg/kg)to the MED
# Type: ADME, organism-based
# measurement_context: in vivo
Listed next: entries and their corresponding therapeutic safety margin (minimum lethal dose / MED).
value_type: therapeutic safety margin (minimum lethal dose / MED)

> print(dat)
                                    compound  qualifying.sign  obs.value
 1  Cc1cnsc1C(c1ccc(C(C)C)cc1)N1CCN(CCCO)CC1 (stereo not given)                =         20
 2  Cc1cc(C(=C2CCN(C)CC2)c2ccc(C(C)C)cc2)sn1                =          5
 3  Cc1noc(C)c1C(c1ccc(C(C)C)cc1)N1CCNCC1 (stereo not given)                =         50
 4  Cc1cnsc1C(c1ccccc1Cl)N1CCN(C)CC1 (stereo not given)                <         20
 5  CC(C)c1ccc(C(c2ccns2)N2CCN(CCO)CC2)cc1 (stereo not given)                =         40
 6  Cc1cc(C(c2ccccc2C)N2CCN(C)CC2)sn1 (stereo not given)                =         10
 7  Cc1cnsc1C(c1ccc(C(C)C)cc1)N1CCN(CC(C)O)CC1 (stereo not given)                =         12
 8  CN1CCN(C(c2ccns2)c2ccccc2Cl)CC1 (stereo not given)                =          5
 9  Cc1noc(C)c1C(c1ccc(C(C)C)cc1)N1CCN(CCO)CC1 (stereo not given)                =        100
10  Cc1cnsc1C(c1ccc(C(C)C)cc1)N1CCN(C)CC1 (stereo not given)                =         30

----------
# System: Rattus norvegicus
# test_summary: Hypolipidemic activity was measured as reduction in rat serum triglyceride after oral administration in male Wistar rats at 10 mg / (kg day)
# Format: functional
Listed next: entries and their corresponding Reduction.
value_type: Reduction (%)

> print(dat)
                                   compound  value.type  measurement.units  obs.value
1  Cc1cnsc1C(c1ccc(CC(C)C)cc1)N1CCN(CCO)CC1 (centres undefined)   Reduction                  %         48
2  Cc1cc(C(=C2CCN(C)CC2)c2ccc(C(C)C)cc2)sn1   Reduction                  %         34
3  Cc1noc(C)c1C(c1ccc(C(C)C)cc1)N1CCNCC1 (centres undefined)   Reduction                  %         82
4  CC(C)c1ccc(C(c2ccns2)N2CCN(C)CC2)cc1 (centres undefined)   Reduction                  %         63

----------
# Tested on: Rattus norvegicus
# test_summary: Hypolipidemic activity was measured as reduction in rat serum cholesterol after oral administration in male Wistar rats at 100 mg/(kg day)
# Assay type: functional
Decide using Reduction alone. Strictly below 80%: Criterion met. Equal to or above 80%: Criterion not met.

> print(dat)
                                    compound     category.label
 1  CC(C)c1ccc(C(c2ccns2)N2CCN(C)CC2)cc1 (stereo not given)  Criterion not met
 2    Cc1noc(C)c1C(=C1CCNCC1)c1ccc(C(C)C)cc1  Criterion not met
 3  Cc1cc(C(c2ccc(C(C)C)cc2)N2CCN(C)CC2)sn1 (stereo not given)      Criterion met
 4  Cc1ccc(C(c2sncc2C)N2CCN(C)CC2)cc1C (stereo not given)      Criterion met
 5  Cc1cc(C(c2ccccc2OC(C)C)N2CCN(C)CC2)sn1 (stereo not given)  Criterion not met
 6  Cc1cc(C(SCCN(C)C)c2ccc(C(C)C)cc2)sn1 (stereo not given)      Criterion met
 7  Cc1noc(C)c1C(c1ccccc1Cl)N1CCN(C)CC1 (stereo not given)      Criterion met
 8  Cc1cc(C(c2ccc(C(C)C)cc2)N2CCNCC2)sn1 (stereo in doubt; 66)      Criterion met
 9  CC(C)c1ccc(C(c2ccns2)N2CCN(CCO)CC2)cc1 (stereo not given)      Criterion met
10  Cc1cc(C(c2ccc(Oc3ccccc3)cc2)N2CCN(C)CC2)sn1 (stereo not given)      Criterion met
11  CN1CCN(C(c2ccns2)c2ccccc2Cl)CC1 (stereo not given)      Criterion met
12  Cc1noc(C)c1C(c1ccc(C(C)C)cc1)N1CCNCC1 (stereo not given)  Criterion not met
13  Cc1cnsc1C(c1ccc(C(C)C)cc1)N1CCN(CC(C)O)CC1 (stereo not given)      Criterion met

----------
# Test system: Rattus norvegicus
# test_summary: Hypolipidemic activity was measured as reduction in rat serum triglyceride after oral administration in male Wistar rats at 100 mg / (kg day)
# Assay type: functional
Reported Reduction maps to class as: bottom end = under 40%, midrange = from 40% up to 70%, top end = 70% and over

> print(dat)
                                    compound  category.label
 1  Cc1noc(C)c1C(OC1CCCN(C)C1)c1ccc(C(C)C)cc1 (centres undefined)        midrange
 2  Cc1cc(C(c2ccccc2OC(C)C)N2CCN(C)CC2)sn1 (centres undefined)         top end
 3  Cc1cnsc1C(c1ccc(C(C)C)cc1)N1CCN(CCCO)CC1 (centres undefined)         top end
 4  CCOc1ccccc1C(c1cc(C)ns1)N1CCN(C)CC1 (centres undefined)      bottom end
 5  CCCCOc1ccccc1C(c1cc(C)ns1)N1CCN(C)CC1 (centres undefined)        midrange
 6  CCOC(=O)N1CCN(C(c2ccc(C(C)C)cc2)c2cc(C)ns2)CC1 (centres undefined)      bottom end
 7  Cc1cnsc1C(c1ccc(C(C)C)cc1)N1CCN(CCO)CC1 (centres undefined)         top end
 8  Cc1cc(C(c2ccc(C3CCCCC3)cc2)N2CCN(C)CC2)sn1 (centres undefined)         top end
 9  CN1CCN(C(c2ccccc2)c2ccccn2)CC1 (centres undefined)         top end
10  Cc1cc(C(Nc2cccnc2)c2ccc(C(C)C)cc2)sn1 (centres undefined)      bottom end
11  Cc1noc(C)c1C(c1ccc(C(C)C)cc1)N1CC[N+](C)(C)CC1 (centres undefined)      bottom end
12  Cc1cc(C(c2ccccc2Cl)N2CCN(C)CC2)sn1 (centres undefined)        midrange
13  CC(C)c1ccc(C(c2ccns2)N2CCN(CCO)CC2)cc1 (centres undefined)         top end

Entry source: ChEMBL document CHEMBL1122607
